test: Selectivity index, ratio of CC50 for cytotoxicity against human A549 cells to EC50 for antiviral activity against pseudotyped Marburgvirus Angola infected in human A549 cells assessed as inhibition of Pseudoviral entry; type: toxicity, cell-based; conditions: read-out: Ratio CC50/EC50
Binary call on selectivity ratio: 1 from 6 upward, 0 beneath that.

Consider the following illustrative entries.
- chemSmiles: "CN(C)C1CCN(C(=O)c2cc3occc3n2Cc2cccc(C(F)(F)F)c2)CC1"
  answerLabel: 1
- chemSmiles: "CN1CCCN(C(=O)c2cc3sccc3n2Cc2ccc(Cl)cc2)CC1"
  answerLabel: 1
- chemSmiles: "CN(C)C1CCN(C(=O)c2cccn2Cc2ccccc2)CC1"
  answerLabel: 0
- chemSmiles: "CN(C)C1CCN(C(=O)c2cn(Cc3ccccc3)c3ccccc23)CC1"
  answerLabel: 1

Let us examine a further case.
Prompt line: Is selectivity ratio at least 6? Consider `O=C(NCCN1CCC1)c1cc2occc2n1Cc1cccc(C(F)(F)F)c1`
Response line: 1
